Literature roundup of Autotaxin (Homo sapiens, UniProt Q13822) data, read-out IC50.

Here's what some known entries look like.
compound	val
CCCCC1CN(CC(=O)NCc2cccc(O)c2)C(=O)c2cc(-c3ccc(Cl)cc3)nn21 (stereo not shown)	0.1 to 1 µM
C[C@H]1CN(CC(=O)NCC(=O)O)C(=O)c2cc(-c3ccc(Cl)cc3)nn21	≥ 1 µM

Inquiry: Return IC50 (reported value) for this compound: CC(C)[C@@H](NC(=O)c1cc(C(F)(F)F)ccc1F)C(=O)N1CCC2(CC1)C(=O)N(C)C(=O)N2Cc1ccc2c(c1)OCCO2
Reply text: < 0.5 µM

Inquiry: Return IC50 (reported value) for this compound: O=C(O)CCN1C(=O)[C@@H]2Cc3c(n(Cc4ccc(Cl)nc4)c4ccccc34)CN2C1=O
Reply text: < 0.5 µM

Inquiry: Return IC50 (reported value) for this compound: NC(=O)c1cc(CNc2ncc(C(=O)N3CCC34COC4)cn2)cc(OC(F)(F)F)c1
Reply text: ≥ 1 µM

Inquiry: Return IC50 (reported value) for this compound: CCCCCC1CN(Cc2ccc(CC(=O)O)cc2)C(=O)c2cc(-c3ccc(Cl)cc3)nn21 (stereo not shown)
Reply text: < 0.01 µM

Inquiry: Return IC50 (reported value) for this compound: C[C@H]1CC[C@@H](Oc2ccc3cc(CN4CCCCC(C(=O)O)C4)ccc3c2C(F)(F)F)CC1 (relative stereo)
Reply text: ≤ 0.5 µM

---

Literature roundup of Autotaxin (Homo sapiens, UniProt Q13822) data, read-out IC50.

Here's what some known entries look like.
compound	IC50
O=C(c1cnc(NCc2cccc(OC(F)(F)F)c2)nc1)N1CCC12COC2	100 to 1000 nM
Cc1c(Sc2cccc(C(=O)O)c2F)c2ccc(Cl)c(F)c2n1CC(=O)N1C[C@H](O)[C@@H](N2CCN(C)CC2)C1	≤ 500 nM
CCCn1cc(-n2c(Cl)c(Sc3cccc(CC(=O)O)c3F)c3ccc(Cl)c(F)c32)cn1	< 500 nM
Cc1c(Sc2cccc(C(=O)O)c2)c2ccc(Cl)c(F)c2n1CC(=O)N1CCCC1	≤ 500 nM
Cc1c(Sc2cccc(C(=O)O)c2)c2ccc(Cl)c(F)c2n1CC(=O)N1CCC(Cc2cnn(C)c2)C1 (stereo not shown)	≤ 500 nM
COC[C@H]1CCCN1C(=O)c1cnc(NCc2cc(OC(F)(F)F)cc(C3CC3)c2)nc1	100 to 1000 nM
O=C(CCc1ccc(F)cc1C(F)(F)F)N1CC[C@@H]2CN(C(=O)c3ccc4[nH]nnc4c3)C[C@@H]2CC1	6 nM
Cc1cc(OCc2n[nH]c3ncccc23)c(-c2cccc(C(=O)N(C)C)c2)cc1Cl	17 nM

Read the next record carefully.
Inquiry: Report IC50 from Autotaxin (Homo sapiens, UniProt Q13822) testing of COc1ccc(C(C)C)cc1-c1cc(Cl)c(C)cc1OCc1n[nH]c(=O)n1C
Reply text: 11 nM

---

Literature roundup of UniProt:Q13822 data, read-out IC50.

Here's what some known entries look like.
compound	test-target	IC50
CCc1nc2sc(N3CCN(CC(=O)N4CC(O)C4)[C@@H](CO)C3)nn2c1N(C)c1nc(-c2ccc(F)cc2)c(C#N)s1	UniProt:Q13822	500 to 1000 nM
CC[C@H](c1ccc2c(C(F)(F)F)c(O[C@H]3CC[C@@H](C)CC3)ccc2c1)N1CCC[C@H](CC(=O)O)C1	UniProt:Q13822	≤ 100 nM
CS(=O)(=O)c1cccc(CNc2ncc(C(=O)N3CCC34COC4)cn2)c1	UniProt:Q13822	≥ 1000 nM
O=C1C2Cc3c(n(Cc4ccc(F)cc4)c4ccccc34)CN2C(=O)N1CCO (stereo not shown)	UniProt:Q13822	< 500 nM
CCOC(=O)CN1CC(CC(F)(F)F)n2nc(-c3ccc(Cl)cc3)cc2C1=O (stereo not shown)	UniProt:Q13822	≥ 1000 nM
CCCCC1CN(C(C(C)=O)c2ccccc2)C(=O)c2cc(-c3ccc(Cl)cc3)nn21 (stereo not shown)	UniProt:Q13822	≥ 1000 nM

Inquiry: Return IC50 (reported value) for this compound: O=C(O)C1CCN(Cc2ccc3c(C(F)(F)F)c(O[C@H]4CC[C@@H](C(F)(F)F)CC4)ccc3c2)CC1
Reply text: ≤ 500 nM
